assayRemarks: NCI Yeast Anticancer Drug Screen. Data for the sgs1 mgt1 strain (AID 161);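 also: 0% = growth of cultures given vehicle only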
details: S. cerevisiae sgs1 mgt1 strain, at 5.0 µM (retest, dose inferred, filed as 0.5)
This is part of a sample that, as a whole, favours compounds with a hit. Of some 79,000 tested, about 15% had one in any assay. Activity calls are given as the source filed them. Rule as the data show it: active = growth inhibition above about 70%; inactive = the rest. Where a SMILES comes first, the peptide text is derived from it. The star is where a group is joined. Cbz = O=C(OCc1ccccc1)*
In this exercise, the only acceptable responses are 1 (active), -1 (inactive)

Answered cases to consult:
O=c1ccc2ccc(Cl)cc2[nH]1 : -1
Cc1cc(N=Nc2ccccc2)ccc1O : -1
c1ccc(CCCCc2ccncc2)cc1 : -1
O=C(NC(Cc1ccc(O)cc1)C(=O)NC(Cc1ccccc1)C(=O)O)OCc1ccccc1 (stereo not drawn) (Cbz-Tyr-Phe-OH; configuration not given here) : -1
CCCCCCCCCCN(CCCCCCCCCC)C(=O)COc1c2cc(C(C)(C)C)cc1Cc1cc(C(C)(C)C)cc(c1OCC(=O)N(CCCCCCCCCC)CCCCCCCCCC)Cc1cc(C(C)(C)C)cc(c1OCC(=O)N(CCCCCCCCCC)CCCCCCCCCC)Cc1cc(C(C)(C)C)cc(c1OCC(=O)N(CCCCCCCCCC)CCCCCCCCCC)C2 : 1

Problem: Dear all, I need the recorded test outcome for O=[N+]([O-])c1cc(Br)cc(Br)c1O , thank you.
Solution: -1

Problem: Dear all, I need the recorded test outcome for O=C(N/N=C/c1ccccn1)c1ccccc1[O-].O=C(N/N=C/c1ccccn1)c1ccccc1[O-].[Co+2] , thank you.
Solution: -1

Problem: Dear all, I need the recorded test outcome for O=C(O)c1c2c(c(O)c3c1CN(C1CCCCC1)CO3)OCN(C1CCCCC1)C2 , thank you.
Solution: -1

Problem: Dear all, I need the recorded test outcome for CCOC(=O)/C=C(\C)c1ccc([N+](=O)[O-])cc1 , thank you.
Solution: -1

Problem: Dear all, I need the recorded test outcome for O=C1c2ccccc2C(=O)c2ncccc21 , thank you.
Solution: -1

Problem: Dear all, I need the recorded test outcome for COc1ccc2c(N3CCN(C(=O)C(Cl)(Cl)Cl)CC3)cc(C)nc2c1 , thank you.
Solution: -1

Problem: Dear all, I need the recorded test outcome for CSc1ccc(/C=C2\CN(C)C/C(=C\c3ccc(SC)cc3)C2=O)cc1 , thank you.
Solution: -1

###

assayRemarks: NCI Yeast Anticancer Drug Screen. Data for the mec2-1 strain (AID 157)
details: S. cerevisiae mec2-1 strain, at 5.0 µM (retest, dose inferred, filed as 0.5)
This is part of a sample that, as a whole, favours compounds with a hit. Of some 79,000 tested, about 15% had one in any assay. The source made the active and inactive calls. Rule as the data show it: active = growth inhibition above about 70%; inactive = the rest. Where a SMILES comes first, the peptide text is derived from it. [ ]: non-standard residue; d: D form. The star is where a group is joined. Phe(2-OMe) = COc1ccccc1C[CH](N)C(=O)O; Cbz = O=C(OCc1ccccc1)*; OBn = c1ccc(CO*)cc1
In this exercise, the only acceptable responses are active, inactive

COC(=O)c1nc(=S)[nH]c(C(=O)OC)c1C(=O)C(C)(C)C : inactive
CC(=O)N(C)NC(=O)c1ccccc1 : inactive
CCCCOC(=O)c1ccc(S(=O)(=O)c2ccc(C(=O)OCCCC)cc2)cc1 : inactive
CC1=C(C(=O)Nc2cccc(Cl)c2)C(c2ccccc2F)C(C(=O)Nc2cccc(Cl)c2)=C(C)N1 : inactive
CC(=O)O[C@H]1CC[C@@]2(C)C(CC[C@]3(C)C2CC=C2[C@@H]4CC(C)(C)CC[C@]4(C(=O)NCCN(C)C)CCC23C)C1(C)C (some centres not stated) : inactive
O=[N+]([O-])c1ccc(O)c(-c2ccccc2)c1 : inactive
O=C1c2ccccc2S(=O)(=O)CC1Br (configuration not stated) : inactive
C/C(=N\NC(=S)Nc1ccc(S(N)(=O)=O)cc1)c1ccccn1 : inactive
CCOC(=O)OCCSCCOC(=O)OCC : inactive
O=C1C=C(Cl)C(=O)C(Cl)=C1Cl : inactive

Problem: Dear all, I need the recorded test outcome for COC(=O)C(Cc1ccccc1OC)NC(=O)C(CC(=O)OCc1ccccc1)NC(=O)OCc1ccccc1 (configuration not stated) (Cbz-Asp(OBn)-[Phe(2-OMe)]-OMe; configuration not given here) , thank you.
Solution: inactive

Problem: Dear all, I need the recorded test outcome for Nc1ccc(C(=O)N/N=C\c2cccc3ccccc23)cc1 , thank you.
Solution: inactive

Problem: Dear all, I need the recorded test outcome for CCCCCCCC[N+](C)(CCCCCCCC)CCCCCCCC , thank you.
Solution: inactive

Problem: Dear all, I need the recorded test outcome for Nc1ccc2c(c1)NCCN2 , thank you.
Solution: inactive

Problem: Dear all, I need the recorded test outcome for Cc1cc(NC(=S)SCc2ccc(Cl)cc2)c([N+](=O)[O-])cc1C , thank you.
Solution: inactive
